Known inhibition of a selection of compounds
# assaySystem: P2X purinoceptor 2 (Homo sapiens)
# experimentalProtocol: Antagonist activity at human P2X2 receptor expressed in human 1321N1 cells assessed as inhibition of ATP-induced cytosolic calcium influx at 100 uM preincubated for 30 mins followed by ATP addition by Fluo-4 AM dye-based fluorescence assay
# Assay type: cell-based
Output spec: scalar in %, unitless text.

# smilesNotation, observed
measured = [
    ("O=C(N1CCCC1)N1c2ccccc2C=Cc2ccccc21", 6),
    ("CCN(CC)C(=O)N1c2ccccc2C=Cc2ccccc21", 1),
    ("O=C(N1CCCCC1)N1c2ccccc2C=Cc2ccccc21", 4),
    ("O=C(NC1CCCCC1)N1c2ccccc2C=Cc2ccccc21", 11),
    ("CCCN(CCC)C(=O)N1c2ccccc2C=Cc2ccccc21", -2),
]

Query compound follows.
Inquiry: Which measured inhibition value corresponds to CC(C)N(C(=O)N1c2ccccc2C=Cc2ccccc21)C(C)C ?
Reply text: 8
